# Experimental system: T1, TGFβ2 (R&D Systems)
# T1 sequence (P61812 303-414, species assumed, looked up): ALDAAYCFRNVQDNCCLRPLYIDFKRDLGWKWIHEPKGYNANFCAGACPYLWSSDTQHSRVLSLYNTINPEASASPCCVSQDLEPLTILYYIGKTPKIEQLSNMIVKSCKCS
# Protocol details: cell-based or functional assay
Quantity: TGFb2 IC50 (SMAD3 phosphorylation in CMVICs, AlphaLISA)

# Binder, Result
records = [
    ("Felinized anti-TGFβ1,2,3 antibody VH2.1 - VL3 (antibody, V domains shown) VH: QVLLVQSGADVRKPGASVKIFCKASGYTFTSNVISWVRQTPAQGFEWMGGVIPIVDIANYAQRFKGRLVLTADTSTNTAYMELRSLKSADTAVYYCASTLGLVLDAMDYWGQGSLVTVSS VL: EIQMTQSPSSLSASPGDRVTITCRASQSLGSSYLAWYQQKPGKVPKLLIYGASSRAPGVPSRFSGSGSGTDFTLTISSLEPEDAATYYCQQYADSPITFGQGTKLEIKR", "0.277 mg/L"),
    ("Caninized anti-TGFβ1,2,3 antibody VH4.11 - VL2 (antibody, V domains shown) VH: QVQLVQSGAEVKKPGSSVKVSCKASGYTFSSNVISWVRQAPGKGLQWVGGVIPIVDIANYAQRFKGRVTLTADTSTNTVYMELSNLRTEDTAVYYCARTLGLVLDAMDYWGQGTLVTVSS VL: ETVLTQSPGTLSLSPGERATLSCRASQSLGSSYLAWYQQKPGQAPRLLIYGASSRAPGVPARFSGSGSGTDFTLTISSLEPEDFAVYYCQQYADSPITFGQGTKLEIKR", "8.48 mg/L"),
    ("Felinized anti-TGFβ1,2,3 antibody VH6.1 - VL3 (antibody, V domains shown) VH: QVLLVQSGAEVRTPGASVKIFCKASGYGFTSNVISWVRQSPAQGLEWMGGVIPIVDIANYAQRFKGRLTLTADTSTDTAYMELSSLRSADTAMYYCASTLGLVLDAMDYWGQGTLVTVSS VL: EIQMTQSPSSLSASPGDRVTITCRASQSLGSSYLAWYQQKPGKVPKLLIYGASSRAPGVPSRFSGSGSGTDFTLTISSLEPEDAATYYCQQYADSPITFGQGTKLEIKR", "0.223 mg/L"),
]
